assayed system: High affinity 3',5'-cyclic-AMP phosphodiesterase 7A (Homo sapiens, UniProt Q13946)
Sequence (Q13946 whole entry): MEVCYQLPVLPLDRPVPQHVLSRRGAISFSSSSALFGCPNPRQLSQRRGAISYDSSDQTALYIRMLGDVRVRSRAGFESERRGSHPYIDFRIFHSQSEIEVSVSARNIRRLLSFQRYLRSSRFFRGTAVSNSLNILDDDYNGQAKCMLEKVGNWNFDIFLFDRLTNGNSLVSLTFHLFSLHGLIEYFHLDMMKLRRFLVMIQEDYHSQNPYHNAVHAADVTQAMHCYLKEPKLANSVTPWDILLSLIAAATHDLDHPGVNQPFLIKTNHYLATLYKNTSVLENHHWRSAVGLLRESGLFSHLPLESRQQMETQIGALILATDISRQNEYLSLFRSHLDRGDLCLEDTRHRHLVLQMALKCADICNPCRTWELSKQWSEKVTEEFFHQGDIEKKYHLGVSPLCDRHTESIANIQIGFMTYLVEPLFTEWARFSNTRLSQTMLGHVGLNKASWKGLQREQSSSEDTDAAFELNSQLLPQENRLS
experiment: Inhibition of human recombinant PDE7A1 expressed in baculovirus infected insect Sf21 cells after 30 mins by scintillation proximity assay
Please provide measured IC50 for the entries that follow.
Answers are plain numbers, in nM.

List reported IC50 for each of these compounds:
1. CS(=O)(=O)c1ccc(NC(=O)c2cn(Cc3c(F)cccc3F)c3ccc(=O)[nH]c3c2=O)cc1
2. NS(=O)(=O)c1ccc(NC(=O)c2cn(Cc3c(F)cccc3F)c3ccc(=O)[nH]c3c2=O)cc1
3. COc1cc(NC(=O)c2cn(Cc3c(F)cccc3Cl)c3ccc(=O)[nH]c3c2=O)cc(OC)c1OC
4. O=C(Nc1ccc(N2CCOCC2)cc1)c1cn(Cc2c(F)cccc2F)c2ccc(=O)[nH]c2c1=O
5. O=C(O)c1ccc(NC(=O)c2cn(Cc3c(F)cccc3F)c3ccc(=O)[nH]c3c2=O)cc1
6. CNc1ccc(NC(=O)c2cn(Cc3c(F)cccc3F)c3ccc(=O)[nH]c3c2=O)cc1

Result string:
[27, 34, 33, 22, 200, 82]

List reported IC50 for each of these compounds:
1. O=C(Nc1ccc(N2CCOCC2)cc1)c1cn(Cc2c(F)c(F)cc(F)c2F)c2ccc(=O)[nH]c2c1=O
2. CSc1ccc(NC(=O)c2cn(Cc3c(F)cccc3F)c3ccc(=O)[nH]c3c2=O)cc1
3. O=C(Nc1ccc(F)cc1)c1cn(Cc2c(F)cccc2F)c2ccc(=O)[nH]c2c1=O
4. CS(=O)(=O)c1cccc(NC(=O)c2cn(Cc3c(F)cccc3Cl)c3ccc(=O)[nH]c3c2=O)c1
5. O=C(Nc1ccc(N2CCOCC2)cc1)c1cn(Cc2c(F)cccc2F)c2cccnc2c1=O
6. CCN(CC)c1ccc(NC(=O)c2cn(Cc3c(F)cccc3F)c3ccc(=O)[nH]c3c2=O)cc1
7. COc1cc(NC(=O)c2cn(Cc3c(F)cccc3F)c3ccc(=O)[nH]c3c2=O)cc(OC)c1OC
8. NC(=O)c1ccc(NC(=O)c2cn(Cc3c(F)cccc3F)c3ccc(=O)[nH]c3c2=O)cc1

Result string:
317
86
179
59
823
46
18
49

List reported IC50 for each of these compounds:
1. Nc1ccc(NC(=O)c2cn(Cc3c(F)cccc3F)c3ccc(=O)[nH]c3c2=O)cc1
2. O=C(Nc1ccc(OC(F)(F)F)cc1)c1cn(Cc2c(F)cccc2F)c2ccc(=O)[nH]c2c1=O

Result string:
104
90

###

assayed system: cAMP and cAMP-inhibited cGMP 3',5'-cyclic phosphodiesterase 10A (Homo sapiens)
Sequence (Q9Y233 whole entry): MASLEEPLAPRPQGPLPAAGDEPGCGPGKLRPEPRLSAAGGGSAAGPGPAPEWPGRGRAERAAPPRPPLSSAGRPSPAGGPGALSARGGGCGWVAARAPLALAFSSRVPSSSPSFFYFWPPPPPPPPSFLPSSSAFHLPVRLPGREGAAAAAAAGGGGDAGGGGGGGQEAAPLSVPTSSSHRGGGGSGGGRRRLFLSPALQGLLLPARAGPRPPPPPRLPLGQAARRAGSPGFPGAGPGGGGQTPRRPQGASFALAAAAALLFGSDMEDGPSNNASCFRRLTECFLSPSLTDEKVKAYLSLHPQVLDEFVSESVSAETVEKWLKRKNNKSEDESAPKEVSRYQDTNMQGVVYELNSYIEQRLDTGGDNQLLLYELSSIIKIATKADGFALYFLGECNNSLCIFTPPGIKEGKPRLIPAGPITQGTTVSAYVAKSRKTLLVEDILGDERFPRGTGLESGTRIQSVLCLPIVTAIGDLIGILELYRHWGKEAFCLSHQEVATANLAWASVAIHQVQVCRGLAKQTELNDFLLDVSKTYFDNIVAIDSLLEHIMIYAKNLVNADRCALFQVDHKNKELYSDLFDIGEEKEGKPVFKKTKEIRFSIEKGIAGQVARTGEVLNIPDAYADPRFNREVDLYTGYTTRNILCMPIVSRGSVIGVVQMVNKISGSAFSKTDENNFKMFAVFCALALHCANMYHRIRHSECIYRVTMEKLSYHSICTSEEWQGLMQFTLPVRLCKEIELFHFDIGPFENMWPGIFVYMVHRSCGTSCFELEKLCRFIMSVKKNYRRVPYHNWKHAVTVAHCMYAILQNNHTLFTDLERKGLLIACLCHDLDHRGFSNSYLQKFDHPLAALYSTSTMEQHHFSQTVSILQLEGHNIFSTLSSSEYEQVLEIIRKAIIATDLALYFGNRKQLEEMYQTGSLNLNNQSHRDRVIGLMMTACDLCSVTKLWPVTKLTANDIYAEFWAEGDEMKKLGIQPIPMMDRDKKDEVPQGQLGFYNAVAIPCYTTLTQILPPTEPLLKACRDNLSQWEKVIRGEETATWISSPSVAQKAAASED
experiment: Inhibition of human recombinant PDE10A
attribute measured: IC50

{"smiles entry": "CCN(CC)c1ccc(NC(=O)c2cn(Cc3c(F)cccc3Cl)c3ccc(=O)[nH]c3c2=O)cc1", "IC50": "> 5000 nM"}

// next item, IC50 requested
Query string: Please supply the value of reported IC50 for the item `O=C(Nc1ccc(N2CCOCC2)cc1)c1cn(Cc2c(F)cccc2Cl)c2ccc(=O)[nH]c2c1=O`
Result string: > 1000 nM

###

assayed system: High affinity 3',5'-cyclic-AMP phosphodiesterase 7A (Homo sapiens, UniProt Q13946)
experiment: Inhibition of human recombinant PDE7A1 expressed in baculovirus infected insect Sf21 cells after 30 mins by scintillation proximity assay
Note to self: class = bucket of IC50, per low-valued (below 0.02 µM), mid-valued (0.02 µM to below 0.09 µM), high-valued (0.09 µM or more)

{"smiles entry": "NC(=O)c1ccc(NC(=O)c2cn(Cc3c(F)cccc3Cl)c3ccc(=O)[nH]c3c2=O)cc1", "label class": "low-valued"}
{"smiles entry": "CS(=O)(=O)c1ccc(NC(=O)c2cn(Cc3c(F)cccc3Cl)c3ccc(=O)[nH]c3c2=O)cc1", "label class": "low-valued"}
{"smiles entry": "COc1cc(NC(=O)c2cn(Cc3ccccc3)c3ccc(=O)[nH]c3c2=O)cc(OC)c1OC", "label class": "high-valued"}

// switching to the query compound
Query string: Band assignment needed for `CN(C)c1ccc(NC(=O)c2cn(Cc3c(F)cccc3Cl)c3ccc(=O)[nH]c3c2=O)cc1` please.
Result string: mid-valued
